- ASSAY_SYSTEM: CD3ε δIg (Homo sapiens, UniProt P04234+P07766)
- Construct: made in house; host or cells: COS-7 (transient, DEAE-dextran); purified on protein A-Sepharose
- Sequence (P07766 23-126): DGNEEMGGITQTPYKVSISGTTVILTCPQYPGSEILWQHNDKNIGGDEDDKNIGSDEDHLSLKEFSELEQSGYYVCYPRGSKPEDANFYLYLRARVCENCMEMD
- Sequence (P04234 22-100): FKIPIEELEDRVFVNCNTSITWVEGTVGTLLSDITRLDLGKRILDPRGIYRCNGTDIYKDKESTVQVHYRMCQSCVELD
- TEST_SUMMARY: BIACORE binding of CDR3 peptides
- DETAILS: peptides cyclized and characterized as pools of 3-5, CD3ε δhuIg impure mixture, nd = non detectable binding, read-out: Binding Affinity, CD3ε δIg
METRIC_NAME: Kd (µM)

1 = YCRSAYYDYDGIAYCW [cyclized peptide derived from CDR3 region of an anti-CD3 or anti-CD28 mAb]
2 = YCARDSDWYFDVCW [cyclized peptide derived from CDR3 region of an anti-CD3 or anti-CD28 mAb]
Task: Of 1 and 2 , whose reported Kd is numerically smaller? Output the label that corresponds to your choice.
Result: 1
(1: 7 µM, 2: 50 µM)
